protocol notes: AUC(0 to t) in rat at 3 mg/kg, iv
Type: ADME, organism-based
Parameters: dose 3 mg/kg, route iv
condition notes: in vivo
observed property: AUC(0-t)

O=C(Cc1ccccc1)Nc1nnc(CCSCCc2nnc(NC(=O)Cc3ccccc3)s2)s1; 2090 ng·h/mL

###

Test system: A549
protocol notes: Inhibition of glutaminase in human A549 cells assessed as ratio of glutamine to glutamate level (Rv b= 0.45 +/- 0.011)
Format: cell-based
Could you mark each record fulfilled if its Ratio falls strictly under 1, and not fulfilled if it equals or exceeds it?

CN1CCN(c2cccc(NC(=O)c3ccc(COCCC4CCN(c5nnc(NC(=O)Cc6ccccc6)s5)CC4)cc3)c2)CC1; fulfilled
CN1CCN(c2cccc(NC(=O)c3ccc(CN4CCN(c5nnc(NC(=O)Cc6ccccc6)s5)CC4)cc3)c2)CC1; not fulfilled
CN1CCN(c2cccc(NC(=O)c3cccc(CN4CCN(c5nnc(NC(=O)Cc6ccccc6)s5)CC4)c3)c2)CC1; not fulfilled
CCCCCCN1CCC(CNC(=O)c2ccc(COCCC3CCN(c4nnc(NC(=O)Cc5ccccc5)s4)CC3)cc2)CC1; not fulfilled
CN1CCN(c2ccc(C(=O)Nc3ccc(CN4CCN(c5nnc(NC(=O)Cc6ccccc6)s5)CC4)cc3)cc2)CC1; fulfilled
CCCCCCN1CCC(CNC(=O)c2cccc(COCCC3CCN(c4nnc(NC(=O)Cc5ccccc5)s4)CC3)c2)CC1; not fulfilled
Cc1ccccc1CN1CCC(CNC(=O)c2cccc(COCCC3CCN(c4nnc(NC(=O)Cc5ccccc5)s4)CC3)c2)CC1; not fulfilled

Reference source: ChEMBL document CHEMBL5352409
